Biological target: Human immunodeficiency virus type 1 reverse transcriptase (Human immunodeficiency virus 1, UniProt Q72547)
Assay Readout: IC50 (µM)
Give bare numbers, in µM.

Worked examples follow.
Retrieve IC50 measured for Cc1ccnc(C23SCCN2C(=O)c2cccnc23)c1 (stereo not drawn) and print it.
4.6

Quickly give me recorded IC50 for O=C1c2cccc(Cl)c2C2(c3ccccc3)SCCN12 (stereo not drawn)
0.29

Below are some compounds; for each one, tell me its IC50.
1. O=C1c2ccccc2C2(c3ccc(Cl)cc3)SCCN12 (stereo not drawn)
2. O=C1c2ccccc2C2(c3ccco3)SCCN12 (stereo not drawn)
3. CCc1cc(NCc2nc3c(Cl)ccc(Cl)c3o2)c(O)nc1C
4. O=C1c2ccc([N+](=O)[O-])cc2C2(c3ccccc3)SCCN12 (stereo not drawn)
5. C[C@@H]1COC2(c3ccccc3)c3ccccc3C(=O)N12 (stereo partly drawn)

4
1.35
0.001
10
40

For the 8 compounds below, give their IC50 values.
1. O=C1c2ccccc2C2(c3ccccc3)SCCCN12 (stereo not drawn)
2. Cc1cccc2c1C(=O)N1CCSC21c1ccccc1 (stereo not drawn)
3. O=C1c2ccccc2[C@]2(c3ccccc3)SCCN12
4. CCc1cccc(C23SCCN2C(=O)c2ccccc23)c1 (stereo not drawn)
5. O=C1c2ccccc2C2(c3cccnc3)SCCN12 (stereo not drawn)
6. O=C1c2ccccc2C2(c3cccs3)SCCN12 (stereo not drawn)
7. O=C1c2ccccc2[C@@]2(c3ccccc3)SCCN12
8. Cc1ccc2c(c1)C(=O)N1CCSC21c1ccccc1 (stereo not drawn)

1. 2.2
2. 8
3. 39.6
4. 1.1
5. 28
6. 2.65
7. 0.28
8. 10

Parameter requested: IC50. Apply to each item below.
1. O=C1c2cccnc2C2(c3ccccc3)SCCN12 (stereo not drawn)
2. O=C1c2ccccc2C2(c3cccc4c3CCC4)SCCN12 (stereo not drawn)

[3.45, 0.9]

Value sought for every listed compound: IC50.
1. Nc1cccc(C23SCCN2C(=O)c2ccccc23)c1 (stereo not drawn)
2. C[C@@H]1CN2C(=O)c3ccccc3C2(c2ccccc2)O1 (stereo partly drawn)

4.6
37.6
